Ref: PubChem BioAssay (NCI)

experiment: NCI Yeast Anticancer Drug Screen. Data for the cln2 rad14 strain (AID 165);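 also: 0% = growth equal to vehicle treated cultures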
condition_label: S. cerevisiae cln2 rad14 strain, at 50.0 µM, stronger effect = higher value
Compounds without any hit were thinned out: in the full panel of roughly 79,000, 15% have a hit.
Class met: growth inhibition at least 70%. Class not met: growth inhibition below 70%.

molecule: O=C1C(=C2CCCC2)CCC1CN1CCCCC1 (stereo not drawn)
label: not met
//
molecule: O=c1c2ccccc2nc(-c2cccc([N+](=O)[O-])c2)n1O
label: met

Test whether the molecule O=c1cccccc1[O-].O=c1cccccc1[O-].O=c1cccccc1[O-].[Eu+3] records growth inhibition of 70% or higher.
met

Queued: O=[N+]([O-])/C=C/c1cc2ccc3ccccc3c2[nH]1
met

Queued: CCN(CC)CCNc1ccc2nc(C)n3c4ccc(OC)cc4c(=O)c1c23
not met

Queued: O=c1[nH]c2c([N+](=O)[O-])cccc2c2ccccc12
met

Queued: O=Cc1ccccc1C=O
not met

Queued: O=C(CCCN1CCC(Nc2ccc(F)cc2)(c2nnnn2C2CCCCC2)CC1)c1ccc(F)cc1
not met

Queued: COc1cc([C@@H]2c3cc4c(cc3[C@@H](NC(=O)NO)[C@H]3COC(=O)[C@H]23)OCO4)cc(OC)c1O
not met

Queued: O=C(NNc1ccccc1)C(CCCCNS(=O)(=O)Cc1ccccc1)NS(=O)(=O)Cc1ccccc1 (stereo not drawn)
not met

Queued: O=C(C#Cc1ccccc1)/C=C/c1ccccc1
met

Queued: CCCNCC(=O)O[C@]1(CC)C(=O)OCc2c1cc1n(c2=O)Cc2cc3ccccc3nc2-1
not met

Queued: CCCC/C=C1\CCC(CN2CCCC2)C1=O (stereo not drawn)
met

Queued: CC(=O)O/N=C1C=C/C(=C(/C#N)c2ccccc2)C=C/1C
met

Queued: CCC(OC(C)=O)C1CC(C(C)C)CCC1C (stereo not drawn)
met

Queued: COc1ccc2cc3c4cc5c(cc4cc[n+]3cc2c1OC)OCO5
met

Queued: COC(=O)C1=C(C(=O)OC)CC(n2nnc(C(=O)OC)c2C(=O)OC)=CC1
not met

Queued: CC(C)(CN1CCCCC1)C(=O)CC(SCCS(=O)(=O)O)c1ccccc1 (stereo not drawn)
not met

Queued: Cc1cccc(C)c1NC(=O)C(C#N)C1=C(Cl)C(=O)c2ccccc2C1=O (stereo not drawn)
met

Queued: COC(=O)C1CCCCC1C(=O)Nc1ccccc1 (stereo not drawn)
not met

Queued: O=[N+]([O-])c1ccc2[nH]c3c(-c4ccccc4)nccc3c2c1
met

Queued: CNC(=O)OCc1c(COC(=O)NC)c(C)n(-c2ccc(Br)cc2)c1C
not met

Queued: O=C1c2ccccc2-c2ccc(N=Cc3ccccc3)cc21
not met

----------
experiment: NCI Yeast Anticancer Drug Screen. Data for the mlh1 strain (AID 171);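 also: 0% = growth of vehicle-treated control cultures of the same strain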
condition_label: S. cerevisiae mlh1 strain growth inhibition; at 3.7 µM; stronger effect = higher value
This is part of a sample that, as a whole, favours compounds with a hit. Of some 79,000 tested, about 15% had one in any assay.
Quick reference for growth inhibition among some compounds
Use % as the unit, but write only the number.

Below are worked cases with known answers.
compound: O=C(c1cc(=O)c2ccc(O)cc2o1)c1ccc(Cl)cc1Cl
assay_result: -7
--
compound: CCN1CCC(O)(c2ccc(Oc3ccc(C)cc3)cc2)C(C(=O)c2ccc(Oc3ccc(C)cc3)cc2)C1 (stereo not given)
assay_result: -2
--
compound: Nc1ccc(N=Nc2ccc(-c3ccc(O)cc3)cc2)c2ccc(S(=O)(=O)O)cc12
assay_result: 3
--
compound: CCCCCCCCCCCCCCN
assay_result: 8
--
compound: CCN(CC)CC(=O)c1ccc2cc(Cl)c3ccccc3c2c1
assay_result: 23

Find the recorded growth inhibition belonging to COc1cc([C@@H]2c3cc4c(cc3[C@@H](NC(=O)NO)[C@H]3COC(=O)[C@H]23)OCO4)cc(OC)c1O and report it.
-2

Queued: CC1(C)OC(=O)C(=Cc2ccc([N+](=O)[O-])s2)C(=O)O1
-24

Queued: CCCCCCCN1C(=O)c2ccccc2C1=O
-6

Queued: Oc1ccc(N=Nc2ccc(Cl)cc2)cc1
2

Queued: COC(=O)/C(C#N)=C\NC(=S)C(N)=S
32

Queued: CC(=O)/C=C/c1cc([N+](=O)[O-])ccc1O
3

Queued: O=[N+]([O-])c1cc(Cl)ccc1S(=O)(=O)c1ccc(Cl)cc1[N+](=O)[O-]
3

Queued: CC(C)S(=O)(=O)/C=C\S(=O)(=O)C(C)C
-1

Queued: COc1ccc(-c2cc(-c3cc(C)cc(Cl)c3O)nc3[nH]c(=S)[nH]c(=S)c23)cc1
-2

Queued: COC(=O)c1ccccc1N=NNc1cccc(SC)c1
4

Queued: O=C1C(=C2CCCC2)CCC1CN1CCCCC1 (stereo not given)
0

Queued: COc1ccc2c(c1)CCCC(Br)C2=O (stereo not given)
23

Queued: CCCCCCCCCC(=O)N(CCC)CCC
-15
